- target of assay: Heme oxygenase 1 (Rattus norvegicus, UniProt P06762)
- Sequence (P06762 whole entry): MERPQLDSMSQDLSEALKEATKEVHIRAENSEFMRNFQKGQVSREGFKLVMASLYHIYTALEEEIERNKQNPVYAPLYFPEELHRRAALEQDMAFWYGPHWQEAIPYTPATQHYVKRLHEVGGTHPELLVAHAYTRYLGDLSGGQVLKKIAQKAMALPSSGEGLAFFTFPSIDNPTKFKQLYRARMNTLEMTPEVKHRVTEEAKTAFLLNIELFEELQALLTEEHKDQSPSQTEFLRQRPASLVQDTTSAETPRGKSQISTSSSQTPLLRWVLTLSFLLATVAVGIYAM
measurement kind: pIC50
// scale note: pIC50 = -log10(conc_M); give the bare number

Exam item: For `FC(F)(F)c1ccc(SC[C@@H]2CO[C@](CCc3ccc(Cl)cc3)(Cn3ccnc3)O2)nc1` , write its pIC50.
Marked response: 5.68

---

- Test system: U-87 MG
- test: Antiproliferative activity against human U-87MG cells assessed as reduction in cell viability at 1 uM incubated for 48 hrs by MTT assay relative to control
- Format: functional, U-87MG ATCC
measurement kind: inhibition at 1 µM (%)
Your answer is read as %, so omit the unit and give the number.

>  <compound>
CN(C(=O)Cn1ccnc1)C(c1ccccc1)c1ccc(OCc2ccc(Br)cc2)cc1 (stereo not given)

>  <unit info>
%

>  <recorded number>
20

$$$$

Attention now turns to another entry.
Exam item: For CN(C(=O)Cn1ccnc1)C(c1ccccc1)c1ccc(OCc2ccccc2)cc1 (stereo not given) , write its inhibition at 1 µM.
Marked response: 20

---

- target of assay: Heme oxygenase 2 (Rattus norvegicus, UniProt P23711)
- Sequence (P23711 whole entry): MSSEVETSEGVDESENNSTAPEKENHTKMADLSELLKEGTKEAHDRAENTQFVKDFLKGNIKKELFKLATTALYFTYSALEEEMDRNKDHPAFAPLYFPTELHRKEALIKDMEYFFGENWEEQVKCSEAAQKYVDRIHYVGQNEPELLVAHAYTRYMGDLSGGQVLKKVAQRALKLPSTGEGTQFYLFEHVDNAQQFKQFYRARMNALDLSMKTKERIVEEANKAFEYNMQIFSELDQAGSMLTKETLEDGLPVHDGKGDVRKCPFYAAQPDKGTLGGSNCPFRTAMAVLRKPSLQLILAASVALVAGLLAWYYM
measurement kind: pIC50
// scale note: pIC50 = -log10(conc_M); give the bare number

Exam item: Give the observed pIC50 of `FC(F)(F)c1ccc(SC[C@@H]2CO[C@](CCc3ccc(Cl)cc3)(Cn3ccnc3)O2)nc1` for Heme oxygenase 2 (Rattus norvegicus, UniProt P23711).
Marked response: 4.80

---

# maps each entry to its inhibition at 1 µM
- Test system: U-87 MG
- test: Antiproliferative activity against human U-87MG cells assessed as reduction in cell viability at 1 uM incubated for 48 hrs by MTT assay relative to control
- Type: functional, U-87MG ATCC

Observe how each entry below is paired with its result.
>  <compound>
CN(C(=O)Cn1ccnc1)C(c1ccccc1)c1ccc(I)cc1 (stereo not drawn)

>  <result>
> 30%

$$$$
>  <compound>
CN(C(=O)Cn1ccnc1)C(c1ccccc1)c1ccc(Cl)cc1 (stereo not drawn)

>  <result>
> 60%

$$$$

Attention now turns to another entry.
Exam item: Give the observed inhibition at 1 µM of CN(C(=O)Cn1ccnc1)C(c1ccccc1)c1cccc(Br)c1 (stereo not drawn) for U-87 MG.
Marked response: > 30%
